B1: CPEB3 Ribozyme (parent)
chain: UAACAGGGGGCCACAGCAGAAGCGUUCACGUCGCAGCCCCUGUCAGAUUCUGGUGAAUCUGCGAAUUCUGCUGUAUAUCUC

Variants of: B1
assayText: self-cleavage, relative activity (ratio to wild type); higher = more cleavage; in vitro, sequencing
readoutName: self-cleavage

- change: "C4U A65G"
  self-cleavage: 0.43

Kindly give each listed record's self-cleavage.
1. A2G A77C
2. G9U A13G
3. G24A C29G
4. A2G U54G
5. U51A U60C
6. U60C U78A

RESULT:
[0.54, 0.24, 0.21, 0.51, 0.59, 0.55]

Kindly give each listed record's self-cleavage.
1. G36A U51A
2. G42U A56U
3. A13G U60G
4. U31A A56U

RESULT:
1: 0.4; 2: 0.48; 3: 0.32; 4: 0.39

Kindly give each listed record's self-cleavage.
1. G16U A35U
2. G19U U43C
3. G24A U69C

RESULT:
1. 0.23
2. 0.1
3. 0.32

Kindly give each listed record's self-cleavage.
1. C32U A64G
2. A45G A47G
3. U25C C37U
4. G16U U49C
5. C71A A77U

RESULT:
0.3
0.46
0.19
0.1
0.36
